# TARGET_UNDER_TEST: NaV1.1 (Homo sapiens (Human), UniProt P35498)
# PROTOCOL_SUMMARY: Sodium Influx Assay (Flux), NaV1.1;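 further: channels co-expressed with human β1 subunit and held open by modulators, cells exposed to compounds for one hour at room temperature, IC50 from percent inhibition of influx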
# Format: cell-based
# CONDITION_NOTES: Trex HEK293 cells, ANG2 dye, inactivated state
pIC50: −log10 of the molar value. Where a name gives a salt, the structure may show the parent alone.
EXPERIMENTAL_ENDPOINT: pIC50

COMPOUND | pIC50
C[C@H](Nc1cc(F)c(S(=O)(=O)Nc2cscn2)c(F)c1)c1cc(Cl)ccc1F [Example 207, 2,2,2-trifluoroacetate] | 5.36
O=S(=O)(Nc1ccc(F)cn1)c1c(F)cc(NCc2c(F)cccc2CN2CCC2)cc1F [Example 296, formate] | 4.77
O=S(=O)(Nc1nccs1)c1cc(Cl)c(N[C@@H](CN2CCC2)c2ccccc2)cc1F [Example 66, 2,2,2-trifluoroacetate] | 6.04
CN(C)C[C@@H](Nc1cc(F)c(S(=O)(=O)Nc2nccs2)cc1Cl)c1ccccc1 [Example 64, 2,2,2-trifluoroacetate] | 4.84
CC[C@H](Nc1ccc(S(=O)(=O)Nc2nccs2)cc1)c1ccccc1 | 5.62
CC(Nc1ccc(S(=O)(=O)Nc2nccs2)cc1Cl)c1cnn(C)c1 (stereo not shown) | 4.96
Cc1cc(S(=O)(=O)Nc2cscn2)c(F)cc1NCc1c(F)cccc1CN1CC(F)C1 | 4.52
O=S(=O)(Nc1cscn1)c1c(F)cc(NCc2c(F)cccc2CN2CC3CC3C2)cc1F (stereo not shown) | 4.52

(a) O=S(=O)(Nc1ncns1)c1c(F)cc(NCc2ccccc2CN2CCC2)c(Cl)c1F [Example 327, formate]
(b) C[C@H](Nc1cc(F)c(S(=O)(=O)Nc2nccs2)cc1Cl)c1cccc(F)c1
Select the item whose pIC50 value is smaller, choosing between a and b . Mark your selection by writing its label.
a
(a: 5.35, b: 6.05)

(A) CCOC1(C)CN(Cc2cccc(F)c2CNc2cc(F)c(S(=O)(=O)Nc3cscn3)c(F)c2)C1 [Example 152, formate]
(B) O=S(=O)(Nc1nccs1)c1cc(Cl)c(NC2(c3ccc(F)cc3)CC2)cc1F
(C) O=S(=O)(Nc1cscn1)c1cc(Cl)c(N[C@H](c2cc(F)ccc2F)C(F)F)cc1F
Descending sort on pIC50 required. # the answer lists labels in the order requested
B, C, A
